Where these numbers come from: patent US12240862B2

# TEST_SYSTEM: human PAD4 (Homo sapiens, UniProt Q9UM07)
# Construct: human PAD4 (NM_012387), A2P663, was PCR amplified; His-SUMO (N, cleaved yes)
# Sequence (Q9UM07 2-663): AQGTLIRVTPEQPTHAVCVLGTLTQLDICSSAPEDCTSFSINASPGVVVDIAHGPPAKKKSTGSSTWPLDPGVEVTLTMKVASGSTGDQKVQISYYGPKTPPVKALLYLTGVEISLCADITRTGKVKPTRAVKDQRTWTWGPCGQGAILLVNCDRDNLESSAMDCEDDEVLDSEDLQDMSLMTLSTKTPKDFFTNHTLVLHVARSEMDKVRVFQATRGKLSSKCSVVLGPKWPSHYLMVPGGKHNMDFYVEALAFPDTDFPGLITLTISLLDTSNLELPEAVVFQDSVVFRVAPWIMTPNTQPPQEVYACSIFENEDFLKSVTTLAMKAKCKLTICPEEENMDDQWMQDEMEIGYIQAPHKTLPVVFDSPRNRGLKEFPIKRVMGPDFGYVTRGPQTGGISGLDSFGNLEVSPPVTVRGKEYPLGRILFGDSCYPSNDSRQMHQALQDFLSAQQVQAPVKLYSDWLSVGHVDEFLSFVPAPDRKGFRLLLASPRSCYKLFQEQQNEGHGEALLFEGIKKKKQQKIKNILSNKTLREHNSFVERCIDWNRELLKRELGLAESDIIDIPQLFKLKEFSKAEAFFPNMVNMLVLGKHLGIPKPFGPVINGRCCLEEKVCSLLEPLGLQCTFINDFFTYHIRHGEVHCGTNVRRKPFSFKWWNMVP
# MEASUREMENT_PROTOCOL: In vitro PAD4 BAEE biochemical assay
# APPLIED_CONDITIONS: human PAD4, BAEE substrate; 5 nM PAD4, 2 mM calcium chloride, 3 mM BAEE; geometric mean of multiple experiments
MEASURE_NAME: IC50 (nM)
Give your result in nM as a bare value.

Problem: State the recorded IC50 for this entry: COc1cc(C(=O)N2CCC[C@@H](N)C2)cc2nc(-c3cc4ccc(C(C)CC(=O)N(C)C)nc4n3CC3CC3)c(C)n12 (stereo partly drawn) [Example 536]
Solution: 128

Problem: State the recorded IC50 for this entry: COc1cc(C(=O)N2[C@H]3CC[C@@H]2[C@H](N)C3)cc2nc(-c3cc4ccc([C@@H](C)NC(C)=O)nc4n3CC3CC3)c(C3CC3)n12 [Example 178]
Solution: 89.4

Problem: State the recorded IC50 for this entry: COc1cc(C(=O)N2[C@H]3CC[C@@H]2[C@H](N)C3)cc2nc(-c3cc4ccc([C@@H](C)NC(=O)c5cnn(C)c5Cl)nc4n3CC3CC3)c(C)n12 [Example 75]
Solution: 39.2

Problem: State the recorded IC50 for this entry: COc1cc(C(=O)N2C[C@H]3CNCC[C@H]32)cc2nc(-c3cc4ccc(N(C(F)F)S(C)(=O)=O)nc4n3CC3CC3)c(C)n12 [Example 284]
Solution: 13400

Problem: State the recorded IC50 for this entry: COc1cc(C(=O)N2[C@H]3CC[C@@H]2[C@H](N)C3)cc2nc(-c3cc4ccc(C(O)C(F)(F)F)nc4n3CC3CC3)c(C)n12 (stereo partly drawn) [Example 569]
Solution: 145

Problem: State the recorded IC50 for this entry: COc1cc(C(=O)N2[C@@H]3CC[C@@H](N)[C@H]2CC3)cc2nc(-c3cc4ccc(N(C(F)F)S(C)(=O)=O)nc4n3CC3CC3)c(C3CC3)n12 [Example 382]
Solution: 204

Others:
Problem: State the recorded IC50 for this entry: COc1cc(C(=O)N2C[C@H]3CC[C@@H]2[C@@H](N)C3)cc2nc(-c3cc4ccc(N(C(F)F)S(C)(=O)=O)nc4n3CC3CC3)c(C)n12 [Example 368]
Solution: 43600

Problem: State the recorded IC50 for this entry: COc1cc(C(=O)N2CCC[C@@H](N)C2)cc2nc(-c3cc4ccc([C@@H](C)CC(=O)N(C)C)nc4n3CC3CC3)c(C)n12 [Example 535]
Solution: 305

Problem: State the recorded IC50 for this entry: COc1cc(C(=O)N2[C@H]3CC[C@@H]2[C@H](N)C3)cc2nc(-c3cc4ccc([C@@H](C)NC(=O)N5CC(C(N)=O)C5)nc4n3CC3CC3)c(C)n12 [Example 225]
Solution: 81.3

Problem: State the recorded IC50 for this entry: COc1cc(C(=O)N2[C@H]3CC[C@@H]2[C@H](N)C3)cc2nc(-c3cc4ccc([C@@H](C)NC(=O)C5CC6(CC6)C5)nc4n3CC3CC3)c(C)n12 [Example 55]
Solution: 52.6

Problem: State the recorded IC50 for this entry: COc1cc(C(=O)N2[C@H]3CC[C@@H]2[C@H](N)C3)cc2nc(-c3cc4ccc([C@@H](C)NC(=O)c5ccon5)nc4n3CC3CC3)c(C)n12 [Example 104]
Solution: 88.3

Problem: State the recorded IC50 for this entry: COc1cc(C(=O)N2[C@@H]3CC[C@@H](N)[C@H]2CC3)cc2nc(-c3cc4ccc(N(C(F)F)S(C)(=O)=O)nc4n3CC3CC3)c(C)n12 [Example 407]
Solution: 129

---

# TEST_SYSTEM: human PAD4 (Homo sapiens)
# Construct: human PAD4 (NM_012387), A2P663, was PCR amplified; His-SUMO (N, cleaved yes)
# MEASUREMENT_PROTOCOL: In vitro PAD4 BAEE biochemical assay
# APPLIED_CONDITIONS: human PAD4, BAEE substrate; 5 nM PAD4, 2 mM calcium chloride, 3 mM BAEE; geometric mean of multiple experiments
Parameter: log10 of IC50. Scope: all listed entries.
Scale: log10; quantity: IC50; unit before log: nM

Problem: State the recorded log10 of IC50 for this entry: `COc1cc(C(=O)N2[C@H]3CC[C@@H]2[C@H](N)C3)cc2nc(-c3cc4ccc([C@@H](C)NC(=O)C5(C)CC5)nc4n3CC3CC3)c(C)n12`
Solution: 1.78

Problem: State the recorded log10 of IC50 for this entry: `COc1cc(C(=O)N2[C@H]3CC[C@@H]2[C@H](N)C3)cc2nc(-c3cc4ccc([C@@H](C)NC(=O)NC5CC6(CC6)C5)nc4n3CC3CC3)c(C)n12`
Solution: 1.48

Problem: State the recorded log10 of IC50 for this entry: `COc1cc(C(=O)N2CC[C@@H]3CCN[C@@H]3C2)cc2nc(-c3cc4ccc(N(C(F)F)S(C)(=O)=O)nc4n3CC3CC3)c(C)n12`
Solution: 3.07

Problem: State the recorded log10 of IC50 for this entry: `COc1cc(C(=O)N2[C@H]3CC[C@@H]2[C@H](N)C3)cc2nc(-c3cc4ccc(OCc5ccccc5)nc4n3CC3CC3)c(C)n12`
Solution: 3.53

Problem: State the recorded log10 of IC50 for this entry: `COc1cc(C(=O)N2[C@H]3CC[C@@H]2[C@H](N)C3)cc2nc(-c3cc4ccc([C@@H](C)N5CCOCC5=O)nc4n3CC3CC3)c(C)n12`
Solution: 2.40

Moving on to another compound below.
Problem: State the recorded log10 of IC50 for this entry: `COc1cc(C(=O)N2CC[C@@H](OC)[C@@H](N)C2)cc2nc(-c3cc4ccc([C@@H](C)NC(=O)c5ccccc5)nc4n3CC3CC3)c(C)n12`
Solution: 2.34

---

# TEST_SYSTEM: human PAD4 (Homo sapiens)
# Construct: human PAD4 (NM_012387), A2P663, was PCR amplified; His-SUMO (N, cleaved yes)
# MEASUREMENT_PROTOCOL: In vitro PAD4 BAEE biochemical assay
# APPLIED_CONDITIONS: human PAD4, BAEE substrate; 5 nM PAD4, 2 mM calcium chloride, 3 mM BAEE; geometric mean of multiple experiments
MEASURE_NAME: log10(IC50) (log10 of the value in nM)
Scale: log10; quantity: IC50; unit before log: nM

Problem: State the recorded log10(IC50) for this entry: COc1cc(C(=O)N2C[C@H](N)CC[C@@H]2C)cc2nc(-c3cc4ccc(C5CC5)nc4n3CC3CC3)c(C)n12 [Example 612]
Solution: 2.87

Problem: State the recorded log10(IC50) for this entry: COc1cc(C(=O)N2[C@H]3CC[C@@H]2[C@H](N)C3)cc2nc(-c3cc4ccc([C@@H](C)NC(=O)N(C)Cc5cccnc5)nc4n3CC3CC3)c(C)n12 [Example 222]
Solution: 1.30

Problem: State the recorded log10(IC50) for this entry: COc1cc(C(=O)N2[C@H]3CC[C@@H]2[C@H](N)C3)cc2nc(-c3cc4ccc([C@@H](C)NC(=O)C(C)(C)CO)nc4n3CC3CC3)c(C)n12 [Example 134]
Solution: 1.82

Others:
Problem: State the recorded log10(IC50) for this entry: COc1cc(C(=O)N2[C@H]3CC[C@@H]2[C@H](N)C3)cc2nc(-c3cc4ccc([C@@H](C)NC(=O)C56CC(CO)(C5)C6)nc4n3CC3CC3)c(C)n12 [Example 65]
Solution: 1.53

Problem: State the recorded log10(IC50) for this entry: COc1cc(C(=O)N2[C@H]3CC[C@@H]2[C@H](N)C3)cc2nc(-c3cc4ccc(C(C)Cc5nnc(C)o5)nc4n3CC3CC3)c(C)n12 (some centres unmarked) [Example 516]
Solution: 1.82

Problem: State the recorded log10(IC50) for this entry: COc1cc(C(=O)N2C[C@@H]3CCC[C@H]2[C@H]3N)cc2nc(-c3cc4ccc(N(C(F)F)S(C)(=O)=O)nc4n3CC3CC3)c(C)n12 [Example 329]
Solution: 3.75

Problem: State the recorded log10(IC50) for this entry: COc1cc(C(=O)N2[C@H]3CC[C@@H]2[C@H](N)C3)cc2nc(-c3cc4ccc([C@@H](C)NC(=O)N5C[C@@H](F)[C@@H](F)C5)nc4n3CC3CC3)c(C)n12 [Example 245]
Solution: 1.79

Problem: State the recorded log10(IC50) for this entry: COc1cc(C(=O)N2[C@H]3CC[C@@H]2[C@H](N)C3)cc2nc(-c3cc4ccc([C@@H](C)NC(=O)N(C)C(C)c5cccnc5)nc4n3CC3CC3)c(C)n12 (some centres unmarked) [Example 221]
Solution: 1.79

Problem: State the recorded log10(IC50) for this entry: CS(=O)(=O)N(c1ccc2cc(-c3nc4cc(C(=O)N5[C@@H]6CC[C@@H](N)[C@H]5CC6)ccn4c3C3CC3)n(CC3CC3)c2n1)C(F)F [Example 397]
Solution: 1.87

Problem: State the recorded log10(IC50) for this entry: COc1cc(C(=O)N2C[C@H]3C[C@@]3(N)C2)cc2nc(-c3cc4ccc([C@@H](C)NC(=O)C56CC(F)(C5)C6)nc4n3CC3CC3)c(C)n12 [Example 24]
Solution: 3.95

Problem: State the recorded log10(IC50) for this entry: COc1cc(C(=O)N2C[C@@H]3CCN[C@@H]3C2)cc2nc(-c3cc4ccc([C@@H](C)NC(=O)C56CC(F)(C5)C6)nc4n3CC3CC3)c(C)n12 [Example 20]
Solution: 3.59

Problem: State the recorded log10(IC50) for this entry: COc1cc(C(=O)N2[C@H]3CC[C@@H]2[C@H](N)C3)cc2nc(-c3cc4ccc(N(C(F)F)S(C)(=O)=O)nc4n3CC3CC3)c(C)n12 [Example 389]
Solution: 1.93

Problem: State the recorded log10(IC50) for this entry: COc1cc(C(=O)N2CCC[C@@H](N)C2)cc2nc(-c3cc4ccc([C@@H](C)NC(=O)N(C)C)nc4n3CC3CC3)c(C)n12 [Example 253]
Solution: 2.13

Problem: State the recorded log10(IC50) for this entry: COc1cc(C(=O)N2[C@H]3CC[C@@H]2[C@H](N)C3)cc2nc(-c3cc4ccc(N5CCN(C)CCS5(=O)=O)nc4n3CC3CC3)c(C)n12 [Example 443]
Solution: 1.54

Problem: State the recorded log10(IC50) for this entry: COc1nn(C)cc1C(=O)N[C@H](C)c1ccc2cc(-c3nc4cc(C(=O)N5[C@H]6CC[C@@H]5[C@H](N)C6)cc(OC)n4c3C)n(CC3CC3)c2n1 [Example 26]
Solution: 2.18

Problem: State the recorded log10(IC50) for this entry: COc1cc(C(=O)N2CCC[C@@H](N)C2)cc2nc(-c3cc4ccc(N(C(F)F)S(=O)(=O)C5CC5)nc4n3CC3CC3)c(C)n12 [Example 413]
Solution: 2.40

Problem: State the recorded log10(IC50) for this entry: COc1cc(C(=O)N2[C@H]3CC[C@@H]2[C@H](N)C3)cc2nc(-c3cc4ccc([C@@H](C)NC(=O)N5CCO[C@H](C)C5)nc4n3CC3CC3)c(C)n12 [Example 210]
Solution: 1.60

Problem: State the recorded log10(IC50) for this entry: COc1cc(C(=O)N2[C@H]3CC[C@@H]2[C@H](N)C3)cc2nc(-c3cc4ccc([C@@H](C)NC(=O)C5(C(F)(F)F)CCOCC5)nc4n3CC3CC3)c(C)n12 [Example 67]
Solution: 2.09

Problem: State the recorded log10(IC50) for this entry: COc1cc(C(=O)N2CCC[C@@H](N)C2)cc2nc(-c3cc4ccc([C@@H](C)NC(=O)N5CCCC5)nc4n3CC3CC3)c(C)n12 [Example 252]
Solution: 1.99

Problem: State the recorded log10(IC50) for this entry: CCc1ccc2cc(-c3nc4cc(C(=O)N5C[C@@]6(N)CC[C@@H]5C6)cc(OC)n4c3C)n(CC3CC3)c2n1 [Example 588]
Solution: 4.03

Problem: State the recorded log10(IC50) for this entry: COc1cc(C(=O)N2C[C@H](N)CC[C@@H]2C)cc2nc(-c3cc4ccc(-c5c(C)n[nH]c5C)nc4n3CC3CC3)c(C)n12 [Example 611]
Solution: 2.86

Problem: State the recorded log10(IC50) for this entry: COc1cc(C(=O)N2CC[C@H]3CCNC[C@H]32)cc2nc(-c3cc4ccc(N(C(F)F)S(C)(=O)=O)nc4n3CC3CC3)c(C)n12 [Example 415]
Solution: 4.45

Problem: State the recorded log10(IC50) for this entry: COc1cc(C(=O)N2[C@H]3CC[C@@H]2[C@H](N)C3)cc2nc(-c3cc4ccc([C@@H](C)NC(=O)N[C@H](C)c5cccnc5)nc4n3CC3CC3)c(C3CC3)n12 [Example 218]
Solution: 1.74
